Property: melting point

Please review the entries below; each comes with its answer.
CS(=O)(=O)c1ccc(C2=C(c3ccc(F)c(F)c3)C(=O)OC2)c(F)c1 ... 146 to 148 °C
CSc1ccc(C2=C(c3ccc(F)c(F)c3)C(=O)OC2)cc1Cl ... 151 to 152 °C
CS(=O)(=O)c1ccc(C2=C(c3cccc(F)c3)C(=O)OC2)c(F)c1 ... 125 to 128 °C
COc1ccc(C2=C(c3ccc(S(C)(=O)=O)cc3F)COC2=O)cc1C ... 144 to 146 °C
Cc1cc(C2=C(c3ccccc3)C(=O)OC2)ccc1S(C)(=O)=O ... 167 to 170 °C
CS(=O)(=O)c1ccc(C2=C(c3ccccc3)C(=O)N(c3ccc(F)cc3)C2=O)c(F)c1 ... 198 to 200 °C
CS(=O)(=O)c1ccc(C2=C(c3ccc(F)cc3)C(=O)OC2)c(F)c1 ... 160 to 162 °C
COc1ccc(C2=C(c3ccc(S(C)(=O)=O)c(C)c3)COC2=O)cc1C ... 147 to 150 °C

Kindly consider the entry below.
Query block: Consider the compound shown here: CSc1ccc(C2=C(c3ccccc3)C(=O)OC2)cc1Cl What is its recorded melting point?
Result block: 151 to 152 °C

----------
Target: cox-1 enzyme (Ovis aries, UniProt P05979)
Construct: Microsomal fraction of ram seminal vesicles used as a source of cox-1 enzyme; from tissue; host or cells: ram seminal vesicles (microsomal fraction)
Sequence (P05979 25-600): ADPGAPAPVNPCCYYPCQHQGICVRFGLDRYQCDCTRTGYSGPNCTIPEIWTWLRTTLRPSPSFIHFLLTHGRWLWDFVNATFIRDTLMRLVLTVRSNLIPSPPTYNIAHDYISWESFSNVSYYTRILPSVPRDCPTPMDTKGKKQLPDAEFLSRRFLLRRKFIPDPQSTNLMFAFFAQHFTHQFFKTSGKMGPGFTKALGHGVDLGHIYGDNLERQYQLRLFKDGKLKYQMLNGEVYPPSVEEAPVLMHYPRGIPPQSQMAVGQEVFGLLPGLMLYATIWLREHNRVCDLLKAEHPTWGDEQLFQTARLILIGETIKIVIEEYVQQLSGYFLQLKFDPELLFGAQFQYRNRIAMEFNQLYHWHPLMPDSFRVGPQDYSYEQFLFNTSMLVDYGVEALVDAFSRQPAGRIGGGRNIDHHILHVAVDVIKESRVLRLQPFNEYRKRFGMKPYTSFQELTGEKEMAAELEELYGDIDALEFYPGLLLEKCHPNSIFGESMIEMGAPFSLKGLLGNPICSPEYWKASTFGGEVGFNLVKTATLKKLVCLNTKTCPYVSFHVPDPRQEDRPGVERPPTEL
Test: Spectrophotometric assay of cox-1 (TMPD oxidation)
Format: biochemical
Conditions: Conc. 100 μM; microsomal fraction of ram seminal vesicles; read-out: Percent inhibition COX-1
Please provide measured inhibition at 100 µM for the entries that follow.
Entry format: amount then unit.

Answered examples (3):
CS(=O)(=O)c1ccc(C2=C(c3ccc(F)c(F)c3)C(=O)OC2)c(F)c1 ... 10%
CCC1OC(=O)C(c2ccc(SC)c(C)c2)=C1c1ccc(S(C)(=O)=O)c(F)c1 (stereo not shown) ... 3%
COc1ccc(C2=C(c3ccc(S(C)(=O)=O)c(C)c3)COC2=O)cc1C ... 30%

Please go through the list and note inhibition at 100 µM for each molecule.
1. CS(=O)(=O)c1ccc(C2=C(c3ccc(F)cc3)C(=O)OC2)c(F)c1
2. CS(=O)(=O)c1ccc(C2=C(c3cccc(F)c3)C(=O)OC2)c(F)c1
3. CCC1OC(=O)C(c2ccc(F)cc2)=C1c1ccc(S(C)(=O)=O)c(F)c1 (stereo not shown)
4. COc1ccc(C2=C(c3ccc(S(C)(=O)=O)cc3F)COC2=O)cc1C

Result block:
["33%", "12%", "0%", "19%"]

Need inhibition at 100 µM for each of these molecules.
1. Cc1cc(C2=C(c3ccccc3)C(=O)OC2)ccc1S(C)(=O)=O
2. CSc1ccc(C2=C(c3ccc(S(C)(=O)=O)c(F)c3)COC2=O)cc1C
3. CS(=O)(=O)c1ccc(C2=C(c3cc(F)cc(F)c3)C(=O)OC2)c(F)c1

Result block:
0%
44%
49%

----------
I'd be grateful if you could share measured melting point for these entries.

Field: example entries. Status: answers known.
CSc1ccc(C2=C(c3ccc(C)cc3)C(=O)OC2)cc1C ... 144 to 147 °C
COc1ccc(C2=C(c3ccc(SC)c(C)c3)COC2=O)cc1 ... 147 to 150 °C
COc1cc(C2=C(c3ccccc3)C(=O)OC2)ccc1SC ... 142 to 144 °C
CSc1ccc(C2=C(c3ccccc3)C(=O)OC2)cc1F ... 145 to 146 °C
CSc1ccc(C2=C(c3ccccc3)C(=O)OC2)cc1C ... 150 to 153 °C

// each listed molecule needs a value for melting point
1. CSc1ccc(C2=C(c3ccc(F)cc3)C(=O)OC2)cc1C
2. CSc1ccc(C2=C(c3ccc(SC)c(F)c3)COC2=O)cc1
3. COc1ccc(C2=C(c3ccc(SC)c(F)c3)COC2=O)cc1
4. CSc1ccc(C2=C(c3ccc(SC)c(Cl)c3)COC2=O)cc1
5. CS(=O)(=O)c1ccc(C2=C(c3cc(F)cc(F)c3)C(=O)OC2)c(F)c1
6. CSc1ccc(C2=C(c3ccc(C)cc3)C(=O)OC2)cc1F

Result block:
1: 126 to 130 °C; 2: 161 to 162 °C; 3: 122 to 124 °C; 4: 157 to 158 °C; 5: 125 to 127 °C; 6: 159 to 160 °C
